src = patent US20060167110A1

Target: UniProtKB H0UVA2
Sequence (H0UVA2 1-461): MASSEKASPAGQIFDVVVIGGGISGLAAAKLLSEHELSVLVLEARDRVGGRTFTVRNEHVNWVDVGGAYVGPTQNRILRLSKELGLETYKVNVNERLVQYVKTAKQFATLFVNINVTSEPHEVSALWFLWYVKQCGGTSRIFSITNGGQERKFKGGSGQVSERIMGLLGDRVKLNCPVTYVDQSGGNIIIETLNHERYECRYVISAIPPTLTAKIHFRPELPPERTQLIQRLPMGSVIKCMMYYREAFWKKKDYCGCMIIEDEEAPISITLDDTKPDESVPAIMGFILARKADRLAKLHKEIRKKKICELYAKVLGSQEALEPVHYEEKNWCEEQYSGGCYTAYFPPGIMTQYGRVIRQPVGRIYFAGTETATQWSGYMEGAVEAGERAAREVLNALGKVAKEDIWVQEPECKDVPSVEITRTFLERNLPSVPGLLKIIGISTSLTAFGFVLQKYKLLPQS
PARAMETER MEASURED: IC50 (µM)

1. C#CCNC(C)Cc1ccccc1 (single isomer, unassigned) [R(−)DMS, R(−)-desmethylselegiline] | 50

* * *

Molecular target: UniProt P21396
Sequence (P21396 1-526): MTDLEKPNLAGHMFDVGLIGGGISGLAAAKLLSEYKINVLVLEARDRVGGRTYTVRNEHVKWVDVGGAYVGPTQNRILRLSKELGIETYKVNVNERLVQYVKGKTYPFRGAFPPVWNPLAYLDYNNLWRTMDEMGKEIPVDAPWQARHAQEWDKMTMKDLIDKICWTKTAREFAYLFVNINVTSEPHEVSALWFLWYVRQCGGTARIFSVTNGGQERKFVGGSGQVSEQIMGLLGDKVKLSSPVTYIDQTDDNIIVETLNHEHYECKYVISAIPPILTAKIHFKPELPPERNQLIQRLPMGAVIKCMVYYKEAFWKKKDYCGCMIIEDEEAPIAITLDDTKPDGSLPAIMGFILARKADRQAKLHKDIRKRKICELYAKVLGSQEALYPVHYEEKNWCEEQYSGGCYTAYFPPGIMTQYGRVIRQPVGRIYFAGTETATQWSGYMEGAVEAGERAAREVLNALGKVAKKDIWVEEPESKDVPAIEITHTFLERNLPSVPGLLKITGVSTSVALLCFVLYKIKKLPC
pIC50: −log10 of the molar value.
PARAMETER MEASURED: pIC50

1. C#CCNC(C)Cc1ccccc1 (single isomer, unassigned) [R(−)DMS, R(−)-desmethylselegiline] | 4.15

* * *

Target: MAO-B (Cavia porcellus, UniProt P58028)
Sequence (P58028 1-520): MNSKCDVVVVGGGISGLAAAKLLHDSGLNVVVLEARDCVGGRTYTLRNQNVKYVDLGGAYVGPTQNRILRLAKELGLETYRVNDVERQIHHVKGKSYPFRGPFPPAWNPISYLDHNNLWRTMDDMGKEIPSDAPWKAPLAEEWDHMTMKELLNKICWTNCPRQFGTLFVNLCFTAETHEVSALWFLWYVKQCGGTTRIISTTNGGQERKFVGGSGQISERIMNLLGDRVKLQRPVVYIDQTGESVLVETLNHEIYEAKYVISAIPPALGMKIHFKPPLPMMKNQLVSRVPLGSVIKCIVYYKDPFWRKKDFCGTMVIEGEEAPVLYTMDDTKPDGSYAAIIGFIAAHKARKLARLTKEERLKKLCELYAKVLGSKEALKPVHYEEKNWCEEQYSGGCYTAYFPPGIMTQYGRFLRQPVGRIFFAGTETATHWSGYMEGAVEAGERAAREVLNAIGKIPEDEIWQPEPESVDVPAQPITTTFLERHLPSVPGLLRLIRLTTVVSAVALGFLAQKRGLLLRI
PARAMETER MEASURED: IC50 (nM)

1. C#CCNC(C)Cc1ccccc1 (single isomer, unassigned) [S(+)DMS, S(+)-desmethylselegiline] | 1200
2. C#CCNC(C)Cc1ccccc1 (single isomer, unassigned) [R(−)DMS, R(−)-desmethylselegiline] | 60
